measurementKind: melting point (°C)

inputsmiles=CCC(CC)C(=O)O[C@H]1C[C@H](O)C=C2C=C[C@H](C)[C@H](CC[C@@H]3C[C@@H](O)CC(=O)O3)[C@H]21 measurementkind="melting point" result=158
inputsmiles=CCOC(=O)c1cc(-c2ccc(Cl)cc2Cl)c(-c2ccc(Cl)cc2)nc1C measurementkind="melting point" result=114

====

measurementKind: melting point (°C)

Please review the entries below; each comes with its answer.
molecule="OC1CSC(Oc2cccnc2Cl)C(O)C1O (stereo not given)" result=153
molecule="COc1ccc2ccc(N3C(=O)c4ccccc4C3CC(=O)C3CCCCC3)nc2n1 (stereo not given)" result=140

[P] O=C(O)Cc1ccc(C2CC(=O)c3ccccc32)cc1 (stereo not given)
[Q] CCCCc1nc(SCC)c2ccccc2c1Cc1ccc(C(=O)OC)cc1
Determine, for P and Q , which has the greater value of melting point. Give the label under which the chosen entry appears.
P
(P: 151 °C, Q: 70 °C)
